// provenance: paper PMC8699473

Assay: Autosampler stability of ready for injection samples
Format: physicochemical, human
Conditions: validation standard 2xLLOV
Quick list: Autosampler (24h, 4°C) Accuracy [%] per entry.
quantity: Autosampler (24h, 4°C) Accuracy [%] (%)

> print(dat)
                                    molecule                             quantity  meas.value
 1  Nc1cccc2c1CN(C1CCC(=O)NC1=O)C2=O (stereo not shown) [Lenalidomide]  Autosampler (24h, 4°C) Accuracy [%]       117.5
 2  CCOc1cc2ncc(C#N)c(Nc3ccc(OCc4ccccn4)c(Cl)c3)c2cc1NC(=O)/C=C/CN(C)C [Neratinib]  Autosampler (24h, 4°C) Accuracy [%]        95.7
 3  CCCS(=O)(=O)Nc1ccc(F)c(C(=O)c2c[nH]c3ncc(-c4ccc(Cl)cc4)cc23)c1F [Vemurafenib]  Autosampler (24h, 4°C) Accuracy [%]       103.5
 4  COc1cc(N2CCC(N3CCN(C)CC3)CC2)ccc1Nc1ncc(Cl)c(Nc2ccccc2P(C)(C)=O)n1 [Brigatinib]  Autosampler (24h, 4°C) Accuracy [%]        96.4
 5  COc1cc2nccc(Oc3ccc(NC(=O)NC4CC4)c(Cl)c3)c2cc1C(N)=O [Lenvatinib]  Autosampler (24h, 4°C) Accuracy [%]       102.4
 6  COC(=O)c1ccc2c(c1)NC(=O)/C2=C(\Nc1ccc(N(C)C(=O)CN2CCN(C)CC2)cc1)c1ccccc1 [Nintedanib]  Autosampler (24h, 4°C) Accuracy [%]       104.2
 7  Cc1ccc(C(=O)Nc2ccc(CN3CCN(C)CC3)c(C(F)(F)F)c2)cc1C#Cc1cnc2cccnn12 [Ponatinib]  Autosampler (24h, 4°C) Accuracy [%]       106.1
 8  O=C1CCC(N2C(=O)c3ccccc3C2=O)C(=O)N1 (stereo not shown) [Thalidomide]  Autosampler (24h, 4°C) Accuracy [%]       102.3
 9  CNC(=O)c1cc(Oc2ccc(NC(=O)Nc3ccc(Cl)c(C(F)(F)F)c3)cc2)ccn1 [Sorafenib]  Autosampler (24h, 4°C) Accuracy [%]       103.1
10  Cc1c(C(=O)Nc2ccc(N3C[C@@H](C)O[C@@H](C)C3)nc2)cccc1-c1ccc(OC(F)(F)F)cc1 [Sonidegib]  Autosampler (24h, 4°C) Accuracy [%]       101.5
11  COC(=O)N[C@@H](C)CNc1nccc(-c2cn(C(C)C)nc2-c2cc(Cl)cc(NS(C)(=O)=O)c2F)n1 [Encorafenib]  Autosampler (24h, 4°C) Accuracy [%]       102.4
12  CNC(=O)c1cc(Oc2ccc(NC(=O)Nc3ccc(Cl)c(C(F)(F)F)c3)c(F)c2)ccn1 [Regorafenib]  Autosampler (24h, 4°C) Accuracy [%]       101.6
13  C[C@@H](Oc1cc(-c2cnn(C3CCNCC3)c2)cnc1N)c1c(Cl)ccc(F)c1Cl [Crizotinib]  Autosampler (24h, 4°C) Accuracy [%]       105.2
14  CC(C)(C)c1nc(-c2cccc(NS(=O)(=O)c3c(F)cccc3F)c2F)c(-c2ccnc(N)n2)s1 [Dabrafenib]  Autosampler (24h, 4°C) Accuracy [%]        97.9
15  O=C(c1ccc(F)c(F)c1Nc1ccc(I)cc1F)N1CC(O)([C@@H]2CCCCN2)C1 [Cobimetinib]  Autosampler (24h, 4°C) Accuracy [%]       100.3
16  CNCc1ccc(-c2[nH]c3cc(F)cc4c3c2CCNC4=O)cc1 [Rucaparib]  Autosampler (24h, 4°C) Accuracy [%]        98.1

* * *

Test: Long-term stability in spiked pooled human plasma
Details: validation standard 2xLLOV
quantity: Long-term stability, 1 month, -80°C Accuracy [%] (%)

> print(dat)
                                   compound  meas.value
1  CC(=O)Nc1cccc(-n2c(=O)n(C3CC3)c(=O)c3c(Nc4ccc(I)cc4F)n(C)c(=O)c(C)c32)c1 [Trametinib]       110.9
2  CCc1cc2c(cc1N1CCC(N3CCOCC3)CC1)C(C)(C)c1[nH]c3cc(C#N)ccc3c1C2=O [Alectinib]        83.3
3  CNC(=O)c1cc(Oc2ccc(NC(=O)Nc3ccc(Cl)c(C(F)(F)F)c3)cc2)ccn1 [Sorafenib]       110.1
4  CCCS(=O)(=O)Nc1ccc(F)c(C(=O)c2c[nH]c3ncc(-c4ccc(Cl)cc4)cc23)c1F [Vemurafenib]       105.7
5  C[C@H]1Oc2cc(cnc2N)-c2c(nn(C)c2C#N)CN(C)C(=O)c2ccc(F)cc21 [Lorlatinib]        84.9
6  COC(=O)c1ccc2c(c1)NC(=O)/C2=C(\Nc1ccc(N(C)C(=O)CN2CCN(C)CC2)cc1)c1ccccc1 [Nintedanib]        98.9
7  Cc1cc(Nc2ncc(Cl)c(Nc3ccccc3S(=O)(=O)C(C)C)n2)c(OC(C)C)cc1C1CCNCC1 [Ceritinib]        89.5
8  C[C@@H](Oc1cc(-c2cnn(C3CCNCC3)c2)cnc1N)c1c(Cl)ccc(F)c1Cl [Crizotinib]        85.4

* * *

Quick list: Long-term stability, 2 month, -20°C Accuracy [%] per entry.
Assay: Long-term stability in spiked pooled human plasma
Details: validation standard 2xLLOV
quantity: Long-term stability, 2 month, -20°C Accuracy [%] (%)

> print(dat)
                                   molecule  quantity.unit  meas.value
1  C[C@]12CC[C@H](O)CC1=CC[C@@H]1[C@@H]2CC[C@]2(C)C(c3cccnc3)=CC[C@@H]12              %       101.0
2  CO[C@@H]1[C@H](N(C)C(=O)c2ccccc2)C[C@H]2O[C@]1(C)n1c3ccccc3c3c4c(c5c6ccccc6n2c5c31)C(=O)NC4              %       106.0
3  Cc1[nH]c2ccccc2c1CCNCc1ccc(/C=C/C(=O)NO)cc1              %        66.3
4  Nc1cccc2c1CN(C1CCC(=O)NC1=O)C2=O (stereo not shown) [Lenalidomide]              %        97.9

* * *

Test: Long-term stability in spiked pooled human plasma
Conditions: validation standard MOV
quantity: Long-term stability, 1 month, -20°C Accuracy [%] (%)

compound	quantity-unit	meas-value
Cc1cc(Nc2ncc(Cl)c(Nc3ccccc3S(=O)(=O)C(C)C)n2)c(OC(C)C)cc1C1CCNCC1	%	93.3
CNCc1ccc(-c2[nH]c3cc(F)cc4c3c2CCNC4=O)cc1	%	98.5
C[C@]12CC[C@H](O)CC1=CC[C@@H]1[C@@H]2CC[C@]2(C)C(c3cccnc3)=CC[C@@H]12	%	95.8
CCc1cc2c(cc1N1CCC(N3CCOCC3)CC1)C(C)(C)c1[nH]c3cc(C#N)ccc3c1C2=O	%	85.8
CCC1=C[C@@H]2CN(C1)Cc1c([nH]c3ccccc13)[C@@](C(=O)OC)(c1cc3c(cc1OC)N(C)[C@H]1[C@@](O)(C(=O)OC)[C@H](OC(C)=O)[C@]4(CC)C=CCN5CC[C@]31[C@@H]54)C2	%	90.2
CC1(C)CCC(CN2CCN(c3ccc(C(=O)NS(=O)(=O)c4ccc(NCC5CCOCC5)c([N+](=O)[O-])c4)c(Oc4cnc5[nH]ccc5c4)c3)CC2)=C(c2ccc(Cl)cc2)C1	%	99.9
COC(=O)N[C@@H](C)CNc1nccc(-c2cn(C(C)C)nc2-c2cc(Cl)cc(NS(C)(=O)=O)c2F)n1	%	99.0
CC(C)(C)c1nc(-c2cccc(NS(=O)(=O)c3c(F)cccc3F)c2F)c(-c2ccnc(N)n2)s1	%	96.1
CNC(=O)c1cc(Oc2ccc(NC(=O)Nc3ccc(Cl)c(C(F)(F)F)c3)cc2)ccn1	%	106.1
Cc1nc(Nc2ncc(C(=O)Nc3c(C)cccc3Cl)s2)cc(N2CCN(CCO)CC2)n1	%	97.7
CCN(CC)CCNC(=O)c1c(C)[nH]c(/C=C2\C(=O)Nc3ccc(F)cc32)c1C	%	118.5
O=C(Nc1cnn2ccc(N3CCC[C@@H]3c3cc(F)ccc3F)nc12)N1CC[C@H](O)C1	%	96.7
COc1cc2nccc(Oc3ccc(NC(=O)Nc4cc(C)on4)c(Cl)c3)c2cc1OC	%	97.4
CCCS(=O)(=O)Nc1ccc(F)c(C(=O)c2c[nH]c3ncc(-c4ccc(Cl)cc4)cc23)c1F	%	104.9
CNC(=O)c1ccc(N2C(=S)N(c3ccc(C#N)c(C(F)(F)F)c3)C(=O)C2(C)C)cc1F [Enzalutamide]	%	90.3
Cc1[nH]c2ccccc2c1CCNCc1ccc(/C=C/C(=O)NO)cc1	%	82.0
CCOc1cc2ncc(C#N)c(Nc3ccc(OCc4ccccn4)c(Cl)c3)c2cc1NC(=O)/C=C/CN(C)C	%	82.9
C=CC(=O)Nc1cc(Nc2nccc(-c3cn(C)c4ccccc34)n2)c(OC)cc1N(C)CCN(C)C	%	97.0
C#Cc1cccc(Nc2ncnc3cc(OCCOC)c(OCCOC)cc23)c1	%	97.4
O=c1[nH]c(=O)n([C@H]2C[C@H](O)[C@@H](CO)O2)cc1C(F)(F)F	%	99.4
NC(=O)c1cccc2cn(-c3ccc([C@@H]4CCCNC4)cc3)nc12	%	99.8
O=C1CN2Cc3c(ccc(Cl)c3Cl)N=C2N1 [Anagrelide]	%	95.0
O=C1CCC(N2C(=O)c3ccccc3C2=O)C(=O)N1 (stereo not shown) [Thalidomide]	%	66.7
CS(=O)(=O)CCNCc1ccc(-c2ccc3ncnc(Nc4ccc(OCc5cccc(F)c5)c(Cl)c4)c3c2)o1	%	95.3
CNC(=O)c1ccc(N2C(=S)N(c3cnc(C#N)c(C(F)(F)F)c3)C(=O)C23CCC3)cc1F [Apalutamide]	%	89.4
Cn1cnc2c(F)c(Nc3ccc(Br)cc3F)c(C(=O)NOCCO)cc21	%	92.3
COc1cc2nccc(Oc3ccc(NC(=O)NC4CC4)c(Cl)c3)c2cc1C(N)=O	%	95.8
COC(=O)c1ccc2c(c1)NC(=O)/C2=C(\Nc1ccc(N(C)C(=O)CN2CCN(C)CC2)cc1)c1ccccc1	%	95.5
Cc1ccc(NC(=O)c2ccc(CN3CCN(C)CC3)cc2)cc1Nc1nccc(-c2cccnc2)n1	%	87.1
COc1cc2ncnc(Nc3ccc(F)c(Cl)c3)c2cc1NC(=O)/C=C/CN1CCCCC1	%	91.7
COc1cc2c(Nc3ccc(Br)cc3F)ncnc2cc1OCC1CCN(C)CC1	%	98.6
